These measurements were taken from patent US5811442A.

target: muscle receptors (Homo sapiens, UniProt P02708+P07510+Q07001); construct: endogenous in cells; assay: cell-based; type: cell-based; details: percentage of the maximal activation induced by (S)-(-)-nicotine
Sequence (P02708 21-457): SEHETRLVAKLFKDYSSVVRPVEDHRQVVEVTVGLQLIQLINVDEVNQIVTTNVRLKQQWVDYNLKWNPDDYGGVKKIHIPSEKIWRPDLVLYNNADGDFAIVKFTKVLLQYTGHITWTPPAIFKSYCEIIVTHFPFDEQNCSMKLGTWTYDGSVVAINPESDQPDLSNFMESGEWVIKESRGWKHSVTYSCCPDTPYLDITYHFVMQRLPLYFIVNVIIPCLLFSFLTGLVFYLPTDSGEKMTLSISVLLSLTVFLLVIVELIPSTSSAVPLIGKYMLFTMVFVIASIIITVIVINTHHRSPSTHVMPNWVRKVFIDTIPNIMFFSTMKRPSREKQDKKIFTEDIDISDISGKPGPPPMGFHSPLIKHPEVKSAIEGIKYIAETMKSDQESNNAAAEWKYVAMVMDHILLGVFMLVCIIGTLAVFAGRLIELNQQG
Sequence (P07510 23-517): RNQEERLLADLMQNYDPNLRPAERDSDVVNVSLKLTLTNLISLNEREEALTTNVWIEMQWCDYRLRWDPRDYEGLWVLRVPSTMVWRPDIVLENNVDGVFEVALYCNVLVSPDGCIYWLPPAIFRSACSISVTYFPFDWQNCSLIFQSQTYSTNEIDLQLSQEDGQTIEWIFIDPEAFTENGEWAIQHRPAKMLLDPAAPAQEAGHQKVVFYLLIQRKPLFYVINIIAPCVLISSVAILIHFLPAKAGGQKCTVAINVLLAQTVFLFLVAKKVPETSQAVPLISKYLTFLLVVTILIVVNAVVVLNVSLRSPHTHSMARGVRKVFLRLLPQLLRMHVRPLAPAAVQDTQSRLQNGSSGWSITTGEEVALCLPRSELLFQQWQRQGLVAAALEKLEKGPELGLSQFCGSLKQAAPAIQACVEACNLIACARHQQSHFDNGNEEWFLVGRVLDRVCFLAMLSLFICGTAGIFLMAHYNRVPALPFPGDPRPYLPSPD
Sequence (Q07001 22-517): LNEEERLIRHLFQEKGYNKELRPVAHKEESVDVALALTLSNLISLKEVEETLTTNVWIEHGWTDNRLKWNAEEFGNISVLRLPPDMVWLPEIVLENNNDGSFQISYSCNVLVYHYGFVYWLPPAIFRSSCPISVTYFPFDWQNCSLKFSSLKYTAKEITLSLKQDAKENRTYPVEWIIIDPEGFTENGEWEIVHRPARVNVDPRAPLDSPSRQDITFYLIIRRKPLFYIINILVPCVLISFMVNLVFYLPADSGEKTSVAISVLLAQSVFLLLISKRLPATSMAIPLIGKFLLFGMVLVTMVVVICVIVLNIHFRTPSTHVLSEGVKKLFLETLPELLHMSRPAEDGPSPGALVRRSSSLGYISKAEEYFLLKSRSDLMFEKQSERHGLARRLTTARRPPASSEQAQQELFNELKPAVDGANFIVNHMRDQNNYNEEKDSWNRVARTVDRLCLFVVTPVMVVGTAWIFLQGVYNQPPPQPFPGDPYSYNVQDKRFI
I would appreciate it if you labelled entries true (1) when Muscle Effect (Emax) is 4 % nicotine or higher, otherwise false (0).

Some entries whose results are on file:
Hi team, for CCOc1cncc(/C=C/CCNC)c1 [Sample No. 19] , is the recorded Muscle Effect (Emax) at or above 4 % nicotine?
false (0)

Same again, this time with CNCC/C=C/c1cncc(-c2ccccc2)c1
true (1)

Same again, this time with CNCC/C=C/c1cncc(OC)c1
false (0)

Same again, this time with CNCC/C=C/c1cncc(OC(C)C)c1
true (1)

Same again, this time with CNCC/C=C/c1cncc(OCc2ccccc2)c1
true (1)

New cases:
Hi team, for CNCC/C=C/c1cncc(Oc2ccccc2)c1 , is the recorded Muscle Effect (Emax) at or above 4 % nicotine?
true (1)

Same again, this time with CNCC/C=C/c1cncc(COC)c1
true (1)

Same again, this time with NCC/C=C/c1cccnc1.O=C(O)/C=C/C(=O)O.O=C(O)/C=C/C(=O)O
true (1)

Same again, this time with CCOc1cncc(/C=C/CCNC)c1 [Sample No. 9]
false (0)

###

Ganglion Effect (Emax) values for the compounds below.
System: ganglionic receptors
Assay: Determination of Interaction with Ganglia (maximal activation of ganglionic receptors)
Assay type: cell-based
Settings: percentage of the maximal activation induced by (S)-(-)-nicotine
Excerpt: Typical ganglionic receptors include α3β4 receptor subtypes, (i.e., non-β2 containing receptor subtypes). Determination of Interaction with Ganglia The ganglionic tissues employed are representative of those which are believed absent of receptor subtypes containing β2-subunits.
Lab book: enter the figure in % nicotine, no units written.

Name the reported Ganglion Effect (Emax) value associated with the compound CNCC/C=C/c1cncc(-c2ccccc2)c1
0

Now, please, on to the next compound.
Name the reported Ganglion Effect (Emax) value associated with the compound NCC/C=C/c1cccnc1.O=C(O)/C=C/C(=O)O.O=C(O)/C=C/C(=O)O
23

###

system: β2-containing nicotinic acetylcholine receptor subtypes; experiment: Determination of Dopamine Release (synaptosomes); type: cell-based; conditions: read-out: Dopamine Release Emax, percentage of release obtained with (S)-(-)-nicotine concentration resulting in maximal effects
Emax values for the molecules below.
Lab book: enter the figure in %, no units written.

Name the reported Emax value associated with the molecule CNC(C)C/C=C/c1cccnc1 (centres unmarked) [Sample No. 10]
182

Same again, this time with NCC/C=C/c1cncc(Br)c1 [Sample No. 13]
29

Same again, this time with CNCC/C=C/c1cncc(COC)c1 [Sample No. 17]
46

New cases:
Name the reported Emax value associated with the molecule CNCC/C=C/c1cncc(OC(C)C)c1 [Sample No. 16]
57

Same again, this time with CNCC/C=C/c1cncc(Br)c1 [Sample No. 7]
107

Same again, this time with NCC/C=C/c1cccnc1.O=C(O)/C=C/C(=O)O.O=C(O)/C=C/C(=O)O [Sample No. 18, difumarate]
81

###

Ganglion Effect (Emax) values for the molecules below.
test system: ganglionic receptors; test: Determination of Interaction with Ganglia (maximal activation of ganglionic receptors); format: cell-based; conditions: percentage of the maximal activation induced by (S)-(-)-nicotine
Form field: result (number plus unit)

# example entries with known answers
Name the reported Ganglion Effect (Emax) value associated with the molecule CCOc1cncc(/C=C/CCNC)c1 [Sample No. 9]
0 % nicotine

Same again, this time with COc1cncc(/C=C/CCN)c1
0 % nicotine

Same again, this time with NCC/C=C/c1cncc(Br)c1
0 % nicotine

New cases:
Name the reported Ganglion Effect (Emax) value associated with the molecule CNC(C)C/C=C/c1cccnc1 (stereo not drawn)
6 % nicotine

Same again, this time with CNCC/C=C/c1cncc(N)c1
4 % nicotine

Same again, this time with CN1CCC[C@H]1c1cccnc1 [Sample No. C-1, (S)-(-)-nicotine, reference compound]
100 % nicotine

Same again, this time with CNCC/C=C/c1cncc(COC)c1
0 % nicotine

Same again, this time with CNCC/C=C/c1ccc(C)nc1
4 % nicotine

Same again, this time with CNCC/C=C/c1cncc(OCc2ccccc2)c1
0 % nicotine

Same again, this time with CNCC/C=C/c1cncnc1
0 % nicotine

Same again, this time with CNCC/C=C/c1cncc(Br)c1
11 % nicotine

Same again, this time with CNCC/C=C/c1cncc(OC)c1
0 % nicotine
